# study target: CatZ (Cathepsin Z) (Rattus norvegicus, UniProt Q9R1T3)
# Sequence (Q9R1T3 64-306): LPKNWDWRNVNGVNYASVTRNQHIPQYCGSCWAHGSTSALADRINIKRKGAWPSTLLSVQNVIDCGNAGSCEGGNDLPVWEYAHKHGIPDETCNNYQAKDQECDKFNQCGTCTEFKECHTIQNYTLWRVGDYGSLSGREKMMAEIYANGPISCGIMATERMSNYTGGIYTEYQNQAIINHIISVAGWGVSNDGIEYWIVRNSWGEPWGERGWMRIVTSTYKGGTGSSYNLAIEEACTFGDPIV
# procedure details: IC50 by competition with radiolabeled general cathepsin probe DCG-04 in rat liver lysate
# measurement context: 1 mg/ml rat liver lysate, inhibitor 20 minutes, then DCG-04 1 hour
# Experimental: Also included in the table for comparison are known compounds JPMOEt and JPMOH (also known as JPM-565). See Meara and Rich, J. Med. Chem. 39:3357-3366, 1996; Bogyo et al, Chem. Biol. 7:27-38, 2000; and Joyce et al., Cancer Cell 5:443-453, 2004. The table also lists cathepsin targets and measured IC50 values for specific compounds. […] After fixing and drying the gel, the residual enzyme activity was measured using ImageJ software. […]
metric: IC50 (nM)

1. CCC[C@H](NC(=O)C1O[C@H]1C(=O)NCC(=O)O)C(=O)N[C@@H](Cc1ccc(O)cc1)C(N)=O (some centres unmarked) [Compound 78] | 1000
2. CCOC(=O)[C@H]1O[C@@H]1C(=O)N[C@@H](CC(C)C)C(=O)NCCc1ccc(O)cc1 [JPMOEt, reference compound] | 200
3. Cc1ccc(C[C@H](NC(=O)C2O[C@H]2C(=O)O)C(=O)N[C@@H](Cc2ccc(O)cc2)C(N)=O)cc1 (some centres unmarked) [Compound 76] | 200
4. CC(C)C[C@H](NC(=O)[C@H]1OC1C(=O)O)C(=O)N[C@@H](Cc1ccc(O)cc1)C(N)=O (some centres unmarked) [Compound 40] | 100
5. NC(=O)[C@H](Cc1ccc(O)cc1)NC(=O)[C@H](CC1CCCCC1)NC(=O)C1OC1C(=O)O (some centres unmarked) [Compound 74] | 300
6. CCC[C@H](NC(=O)C1O[C@@H]1C(=O)NCC(=O)O)C(=O)N[C@@H](Cc1ccc(O)cc1)C(N)=O (some centres unmarked) [Compound 79] | 1300
7. Cc1ccc(C[C@H](NC(=O)C2O[C@H]2C(=O)NCC(=O)O)C(=O)N[C@@H](Cc2ccc(O)cc2)C(N)=O)cc1 (some centres unmarked) [Compound 80] | 800
8. CCC[C@H](NC(=O)C1O[C@@H]1C(=O)O)C(=O)N[C@@H](Cc1ccc(O)cc1)C(N)=O (some centres unmarked) [Compound 77] | 100
9. CCC[C@H](NC(=O)C1O[C@H]1C(=O)O)C(=O)N[C@@H](Cc1ccc(O)cc1)C(N)=O (some centres unmarked) [Compound 75] | 200
10. Cc1ccc(C[C@H](NC(=O)[C@H]2OC2C(=O)NCC(=O)O)C(=O)N[C@@H](Cc2ccc(O)cc2)C(N)=O)cc1 (some centres unmarked) [Compound 16] | 100
11. CC(C)C[C@H](NC(=O)C1O[C@H]1C(=O)NCCCO)C(=O)N[C@@H](Cc1ccc(O)cc1)C(N)=O (some centres unmarked) [Compound 52] | 1800
12. CC(C)C[C@H](NC(=O)[C@H]1O[C@@H]1C(=O)O)C(=O)NCCc1ccc(O)cc1 [JPMOH, reference compound] | 100

* * *

# Test system: cathepsin targets
# procedure details: Cathepsin targets of the compounds (Table 4)
# Assay type: biochemical, rat
# measurement context: cathepsin target(s) inhibited; General = all cathepsins
metric: Target

1) CC(=O)NCCNC(=O)[C@H]1O[C@@H]1C(=O)N[C@@H](Cc1ccc(C)cc1)C(=O)N[C@@H](Cc1ccc(O)cc1)C(N)=O [Compound 1] | Cat B
2) CC(C)C[C@H](NC(=O)C1OC1C(=O)NCCO)C(=O)N[C@@H](Cc1ccc(O)cc1)C(N)=O (stereo partly shown) [Compound 38] | Cat B
3) CC(C)C[C@H](NC(=O)C1OC1C(=O)NCC(N)=O)C(=O)N[C@@H](Cc1ccc(O)cc1)C(N)=O (stereo partly shown) [Compound 34] | Cat B
4) Cc1ccc(C[C@H](NC(=O)C2OC2C(=O)NCCN2CCCCC2)C(=O)N[C@@H](Cc2ccc(O)cc2)C(N)=O)cc1 (stereo partly shown) [Compound 9] | Cat B
